Catalogue of IL-2 [ ]pg/ml (3) readings, one per entry.
system: IL-2 secretion from Jurkat T cells; assay: IL-2 secretion from activated Jurkat T cells (ELISA); type: cell-based, human; conditions: 30 uM, experiment (3)
Give just the numeric value; pg/mL need not be written.

> print(dat)
                                   compound  unitannotation  endpointresult
1  O[C@H]1c2ccccc2C[C@]1(Cc1ccccc1)C1=Cc2ccccc2C1 (mixture of isomers) [Compound 6]           pg/mL           16.47
2  O[C@@H]1c2ccccc2C[C@@]1(Cc1ccccc1)C1=Cc2ccccc2C1 (single isomer, unassigned) [Compound 10]           pg/mL           46.06
3  O[C@@H]1c2ccccc2C[C@]1(Cc1ccccc1)C1=Cc2ccccc2C1 (mixture of isomers) [Compound 5]           pg/mL            6.69

Now turn to the next compound.
Documented IL-2 [ ]pg/ml (3) of O[C@H]1c2ccccc2C[C@]1(Cc1ccccc1)C1=Cc2ccccc2C1 (single isomer, unassigned) [Compound 9] : -3.88

* * *

test system: IL-2 secretion from Jurkat T cells; assay: IL-2 secretion from activated Jurkat T cells (ELISA); type: cell-based, human; details: 0.3 uM, experiment (1)
// values below are reported IL-2 [ ]pg/ml (1)
Please reply with the bare figure in pg/mL and do not write the unit itself.

Some solved entries appear below for comparison.
> print(dat)
                                   compound  experimentalreadout  endpointresult
1  O[C@H]1c2ccccc2C[C@]1(Cc1ccccc1)C1=Cc2ccccc2C1 (single isomer, unassigned)    IL-2 [ ]pg/ml (1)          111.72
2  O[C@@H]1c2ccccc2C[C@]1(Cc1ccccc1)C1=Cc2ccccc2C1 (mixture of isomers)    IL-2 [ ]pg/ml (1)           32.00
3  O[C@@H]1c2ccccc2C[C@@]1(Cc1ccccc1)C1=Cc2ccccc2C1 (single isomer, unassigned)    IL-2 [ ]pg/ml (1)           79.17

API: the following record is the query input.
Reported IL-2 [ ]pg/ml (1) ( O[C@H]1c2ccccc2C[C@]1(Cc1ccccc1)C1=Cc2ccccc2C1 (mixture of isomers) ) = 63.72

* * *

System: IL-2 secretion from Jurkat T cells
Assay: IL-2 secretion from activated Jurkat T cells (ELISA)
Assay type: cell-based, human
Details: 0.3 uM, experiment (2)
Description: The T cell line Jurkat 6.1 (ATCC) was used. Cells were pre-treated for 30 min with 1 μM or 10 μM of the respective compound and then stimulated with plate-bound anti-CD3 (BD Pharmingen) and anti-CD28 (AnCell). DMSO was used as vehicle control. […] After 24 hs the supernatant was collected and IL-2 secretion was measured by ELISA. […] The cell culture supernatants were analysed for IL-2 by ELISA (96-well plate format) using the Human IL-2 ELISA kit from R&D Systems Europe. […]
experimentalReadout: IL-2 [ ]pg/ml (2) (pg/mL)
I only need the number, in pg/mL, no unit after it.

> print(dat)
                                   compound                         assaytarget  endpointresult
1  O[C@@H]1c2ccccc2C[C@]1(Cc1ccccc1)C1=Cc2ccccc2C1 (mixture of isomers)  IL-2 secretion from Jurkat T cells           87.25
2  O[C@H]1c2ccccc2C[C@]1(Cc1ccccc1)C1=Cc2ccccc2C1 (single isomer, unassigned)  IL-2 secretion from Jurkat T cells           73.45
3  O[C@H]1c2ccccc2C[C@]1(Cc1ccccc1)C1=Cc2ccccc2C1 (mixture of isomers)  IL-2 secretion from Jurkat T cells           74.50

IL-2 [ ]pg/ml (2) for O[C@@H]1c2ccccc2C[C@@]1(Cc1ccccc1)C1=Cc2ccccc2C1 (single isomer, unassigned) is 88.15

* * *

tested on: IL-2 secretion from Jurkat T cells; experiment: IL-2 secretion from activated Jurkat T cells (ELISA); type: cell-based, human; conditions: 30 uM, experiment (1)
The following molecules are shown together with reported IL-2 [ ]pg/ml (1) values.
Answer in pg/mL, number only, no unit symbol.

Sure, the documented IL-2 [ ]pg/ml (1) for O[C@H]1c2ccccc2C[C@]1(Cc1ccccc1)C1=Cc2ccccc2C1 (mixture of isomers) is 4.72

What the record says about O[C@@H]1c2ccccc2C[C@]1(Cc1ccccc1)C1=Cc2ccccc2C1 (mixture of isomers) : IL-2 [ ]pg/ml (1) is 16.25

Documented IL-2 [ ]pg/ml (1) of O[C@@H]1c2ccccc2C[C@@]1(Cc1ccccc1)C1=Cc2ccccc2C1 (single isomer, unassigned) : 14.17

The molecule O[C@H]1c2ccccc2C[C@]1(Cc1ccccc1)C1=Cc2ccccc2C1 (single isomer, unassigned) showed IL-2 [ ]pg/ml (1) equal to -4.56

* * *

Tested on: IL-2 secretion from Jurkat T cells
Assay: IL-2 secretion from activated Jurkat T cells (ELISA)
Type: cell-based, human
Conditions: 3 uM, experiment (2), relative to DMSO 0.1%
Method: The T cell line Jurkat 6.1 (ATCC) was used. Cells were pre-treated for 30 min with 1 μM or 10 μM of the respective compound and then stimulated with plate-bound anti-CD3 (BD Pharmingen) and anti-CD28 (AnCell). DMSO was used as vehicle control. […] After 24 hs the supernatant was collected and IL-2 secretion was measured by ELISA. […] The cell culture supernatants were analysed for IL-2 by ELISA (96-well plate format) using the Human IL-2 ELISA kit from R&D Systems Europe. […]
Listing of entries alongside the reported IL-2 % Control (2).
Field note: include the unit after the figure.

Example entries and their recorded answers appear below.
> print(dat)
                                   compound                         assaytarget  endpointresult
1  O[C@H]1c2ccccc2C[C@]1(Cc1ccccc1)C1=Cc2ccccc2C1 (single isomer, unassigned)  IL-2 secretion from Jurkat T cells          59.11%
2  O[C@@H]1c2ccccc2C[C@@]1(Cc1ccccc1)C1=Cc2ccccc2C1 (single isomer, unassigned)  IL-2 secretion from Jurkat T cells          82.92%
3  O[C@@H]1c2ccccc2C[C@]1(Cc1ccccc1)C1=Cc2ccccc2C1 (mixture of isomers)  IL-2 secretion from Jurkat T cells          60.20%

Field IL-2 % Control (2) (entry O[C@H]1c2ccccc2C[C@]1(Cc1ccccc1)C1=Cc2ccccc2C1 (mixture of isomers) ) reads 44.64%

* * *

tested on: IL-2 secretion from Jurkat T cells; assay: IL-2 secretion from activated Jurkat T cells (ELISA); assay type: cell-based, human; settings: 30 uM, experiment (2)
experimentalReadout: IL-2 [ ]pg/ml (2)

Field: example entries. Status: answers known.
> print(dat)
                                   compound                         assaytarget  endpointresult
1  O[C@@H]1c2ccccc2C[C@@]1(Cc1ccccc1)C1=Cc2ccccc2C1 (single isomer, unassigned)  IL-2 secretion from Jurkat T cells     56.70 pg/mL
2  O[C@@H]1c2ccccc2C[C@]1(Cc1ccccc1)C1=Cc2ccccc2C1 (mixture of isomers)  IL-2 secretion from Jurkat T cells      5.75 pg/mL
3  O[C@H]1c2ccccc2C[C@]1(Cc1ccccc1)C1=Cc2ccccc2C1 (single isomer, unassigned)  IL-2 secretion from Jurkat T cells     16.35 pg/mL

For the next question, use this compound.
For the compound O[C@H]1c2ccccc2C[C@]1(Cc1ccccc1)C1=Cc2ccccc2C1 (mixture of isomers) , the measured IL-2 [ ]pg/ml (2) on IL-2 secretion from Jurkat T cells was 47.60 pg/mL

* * *

Entries and their IL-2 % Control (1)
test system: IL-2 secretion from Jurkat T cells; assay: IL-2 secretion from activated Jurkat T cells (ELISA); format: cell-based, human; details: 0.3 uM, experiment (1), relative to DMSO 0.1%
Your answer is read as %, so omit the unit and give the number.

Here are 3 compounds together with their reported answers.
> print(dat)
                                   compound                         assaytarget  unitannotation  endpointresult
1  O[C@@H]1c2ccccc2C[C@]1(Cc1ccccc1)C1=Cc2ccccc2C1 (mixture of isomers) [Compound 5]  IL-2 secretion from Jurkat T cells               %          156.86
2  O[C@@H]1c2ccccc2C[C@@]1(Cc1ccccc1)C1=Cc2ccccc2C1 (single isomer, unassigned) [Compound 10]  IL-2 secretion from Jurkat T cells               %          108.41
3  O[C@H]1c2ccccc2C[C@]1(Cc1ccccc1)C1=Cc2ccccc2C1 (single isomer, unassigned) [Compound 9]  IL-2 secretion from Jurkat T cells               %          152.99

Below: the item to evaluate.
Recorded result, O[C@H]1c2ccccc2C[C@]1(Cc1ccccc1)C1=Cc2ccccc2C1 (mixture of isomers) [Compound 6] , IL-2 % Control (1): 87.26
